- System: Escherichia coli
- run description: Antibacterial activity against Escherichia coli ATCC 0111 assessed as reduction in bacterial growth incubated for 24 hrs by two fold serial dilution method
- Format: functional, organism-based
The source made the active and inactive calls. The rule behind the calls is not given here.
assay metric: Activity

Here's what some known entries look like.
Recall and state the measured Activity for Cc1c(C)c(C(=O)O)c(O)c(C)c1O . inactive

Recall and state the measured Activity for CC(=O)[C@@H](C)c1cc(O)c(Cc2c(O)cc(O)c3c(O)c4c(=O)cc(C)oc4cc23)c(O)c1C=O . inactive

Recall and state the measured Activity for Cc1cc(O)c(C)c(O)c1C . inactive

Recall and state the measured Activity for CC(=O)[C@@H](C)c1cc(O)c(Cc2c(C)c(C)c(O)c(C)c2O)c(O)c1C=O . inactive

More entries:
Recall and state the measured Activity for CC(=O)[C@@H](C)c1cc(O)c(Cc2c(O)cc(O)c(Cc3c(O)cc([C@H](C)C(C)=O)c(C=O)c3O)c2C)c(O)c1C=O . inactive

Recall and state the measured Activity for CC(=O)[C@@H](C)c1cc(O)c(C)c(O)c1C=O . inactive

Recall and state the measured Activity for CC(=O)[C@@H](C)c1cc(O)c(CO)c(O)c1C=O . inactive

Recall and state the measured Activity for CC(=O)[C@@H](C)c1cc(O)c(Cc2c3cc(O)cc(O)c3c(O)c3c(=O)cc(C)oc23)c(O)c1C=O . inactive

Recall and state the measured Activity for CC(=O)[C@@H](C)c1cc(O)c(Cc2c(C)cc(O)cc2O)c(O)c1C=O . inactive

Recall and state the measured Activity for Cc1cc(=O)c2c(O)c3c(O)cc(O)cc3cc2o1 . inactive
